test_name: Therapeutic Index is the […] of the IC50 to that of EC50
Type: cell-based
measurement_setup: human, H9 cells; read-out: TI
Measured selectivity ratio of individual entries
Reply with just the number.

Please review the following examples before continuing.
molecule	parameter_measured	reported
C=C(C)[C@@H]1CC[C@]2(COC(=O)CC(C)(C)CC(=O)O)CC[C@]3(C)[C@H](CC[C@@H]4[C@@]5(C)CC=CC(C)(C)[C@@H]5CC[C@]43C)[C@@H]12	selectivity ratio	5.2
C=C(C)[C@@H]1CC[C@]2(C(=O)O)CC[C@]3(C)[C@H](CC[C@@H]4[C@@]5(C)CC[C@H](OC(=O)COCC(=O)O)C(C)(C)[C@@H]5CC[C@]43C)[C@@H]12	selectivity ratio	1170
C=C(C)[C@@H]1CC[C@]2(COC(=O)CC(C)(C)CC(=O)O)CC[C@]3(C)[C@H](CC[C@@H]4[C@@]5(C)CC[C@H](O)C(C)(C)[C@@H]5CC[C@]43C)[C@@H]12	selectivity ratio	7.8

Answer with the recorded selectivity ratio for the molecule listed here: C=C(C)[C@@H]1CC[C@]2(COC(=O)CC(C)CC(=O)O)CC[C@]3(C)[C@H](CC[C@@H]4[C@@]5(C)CC[C@H](OC(=O)CC(C)CC(=O)O)C(C)(C)[C@@H]5CC[C@]43C)[C@@H]12 (stereo not given in full)
5310

For the molecule C=C(C)[C@@H]1CC[C@]2(C(=O)O)CC[C@]3(C)[C@H](CC[C@@H]4[C@@]5(C)CC[C@H](OC(=O)C(C)(C)CC(=O)O)C(C)(C)[C@@H]5CC[C@]43C)[C@@H]12 , give its reported selectivity ratio.
5.9

* * *

List of selectivity ratio values.
test_name: Therapeutic Index is the […] of the IC50 to that of EC50
Type: cell-based
measurement_setup: human, H9 cells; read-out: TI

Examples with answers:
compound	selectivity ratio
C=C(C)[C@@H]1CC[C@]2(CO)CC[C@]3(C)[C@H](CC[C@@H]4[C@@]5(C)CC[C@@H](O)C(C)(C)[C@@H]5CC[C@]43C)[C@@H]12 [3-EPI-BETULIN]	3.4
C=C(C)[C@@H]1CC[C@]2(CNC(=O)CC(C)(C)CC(=O)O)CC[C@]3(C)[C@H](CC[C@@H]4[C@@]5(C)CC[C@H](NC(=O)CC(C)(C)CC(=O)O)C(C)(C)[C@@H]5CC[C@]43C)[C@@H]12	36.6

Give selectivity ratio for the following compound: CCC(C)(CC(=O)O)CC(=O)OC[C@]12CC[C@@H](C(C)C)[C@@H]1[C@H]1CC[C@@H]3[C@@]4(C)CC[C@H](OC(=O)CC(C)(CC)CC(=O)O)C(C)(C)[C@@H]4CC[C@@]3(C)[C@]1(C)CC2 (some centres undefined)
248

Give a short answer stating reported selectivity ratio for C=C(C)[C@@H]1CC[C@]2(C=O)CC[C@]3(C)[C@H](CC[C@@H]4[C@@]5(C)CCC(=O)C(C)(C)[C@@H]5CC[C@]43C)[C@@H]12 .
1.1

Using the record for C=C(C)[C@@H]1CC[C@]2(CNC(=O)CC3(CC(=O)O)CCCC3)CC[C@]3(C)[C@H](CC[C@@H]4[C@@]5(C)CC[C@H](NC(=O)CC6(CC(=O)O)CCCC6)C(C)(C)[C@@H]5CC[C@]43C)[C@@H]12 , state its measured selectivity ratio.
3.1

Return the recorded selectivity ratio value; entry: CC(C)[C@@H]1CC[C@]2(COC(=O)CC3(CC(=O)O)CCCC3)CC[C@]3(C)[C@H](CC[C@@H]4[C@@]5(C)CC[C@H](OC(=O)CC6(CC(=O)O)CCCC6)C(C)(C)[C@@H]5CC[C@]43C)[C@@H]12
37

Indicate the recorded selectivity ratio value for this compound: C=C(C)[C@@H]1CC[C@]2(COC(=O)CC(C)(C)CC(=O)O)CC[C@]3(C)[C@H](CC[C@@H]4[C@@]5(C)CC[C@@H](OC(=O)CC(C)(C)CC(=O)O)C(C)(C)[C@@H]5CC[C@]43C)[C@@H]12
< 2.4

State, in one line, measured selectivity ratio of C=C(COC(=O)CC1(CC(=O)O)CCCC1)[C@@H]1CC[C@]2(COC(=O)CC3(CC(=O)O)CCCC3)CC[C@]3(C)[C@H](CC[C@@H]4[C@@]5(C)CC[C@H](OC(=O)CC6(CC(=O)O)CCCC6)C(C)(C)[C@@H]5CC[C@]43C)[C@@H]12
1190

Could you please provide reported selectivity ratio for CC(CC(=O)O)CC(=O)OC[C@]12CC[C@@H](C(C)C)[C@@H]1[C@H]1CC[C@@H]3[C@@]4(C)CC[C@H](OC(=O)CC(C)CC(=O)O)C(C)(C)[C@@H]4CC[C@@]3(C)[C@]1(C)CC2 (some centres undefined) ? Thanks!
325
